// reported Ki per item
target under test: Corticotropin-releasing factor receptor 1 (Homo sapiens, UniProt P34998)
Sequence (P34998 whole entry): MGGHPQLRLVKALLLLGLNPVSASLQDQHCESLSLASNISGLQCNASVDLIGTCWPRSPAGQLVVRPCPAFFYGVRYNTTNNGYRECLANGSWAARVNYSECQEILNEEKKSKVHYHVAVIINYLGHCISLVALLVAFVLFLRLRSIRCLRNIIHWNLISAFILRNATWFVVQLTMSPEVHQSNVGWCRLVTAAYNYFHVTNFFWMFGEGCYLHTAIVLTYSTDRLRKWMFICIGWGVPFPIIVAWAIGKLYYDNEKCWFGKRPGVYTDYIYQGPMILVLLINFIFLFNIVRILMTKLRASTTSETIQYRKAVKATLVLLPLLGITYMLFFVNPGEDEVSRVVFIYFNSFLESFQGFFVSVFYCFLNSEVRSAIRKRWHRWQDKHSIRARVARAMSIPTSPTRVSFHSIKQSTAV
experiment description: Binding affinity to recombinant human Corticotropin releasing factor receptor 1 (hCRF1) expressed in 293EBNA cells

Recorded results for 3 compounds are shown here.
Query: Quickly give me recorded Ki for "CCCCNc1nc(C)nc2c1nnn2-c1ccc(C(C)C)cc1Br"
Result: 0.0696 µM

Query: Quickly give me recorded Ki for "CCCCN(CC)c1nc(C)nc2c1nc(-c1ccccc1)n2-c1c(Cl)cc(OC)cc1OC"
Result: 0.133 µM

Query: Quickly give me recorded Ki for "Cc1nc(NC2CCCC2)c2nnn(-c3ccc(C(C)C)cc3Br)c2n1"
Result: 0.12 µM

Let us examine a further case.
Query: Quickly give me recorded Ki for "COCCCN(CCOC)c1nc(C)nc2c1nnn2-c1ccc(C(C)C)cc1Br"
Result: 0.0669 µM

Hello, the source for this data is ChEMBL document CHEMBL1132598, in case you need it.
